In this section, each of the molecules is paired with its reported CC50 at 3 days.
experiment: in vitro
test parameters: human
assay metric: CC50 at 3 days (µM)

COc1ccc(OC)c(S(=O)(=O)N(CCn2nc(C)cc2C)Cc2ccccc2)c1 [DNDI0003367308] | 51
CCN(Cc1ccccc1)S(=O)(=O)c1cc(F)ccc1OC [DNDI0003366070] | 49.6
O=S1(=O)c2ccccc2[C@H](O)[C@H](Cc2ccccc2)N1Cc1ccccc1 [DNDI0003578379] | 29.7
C=C(c1ccc(F)cc1)N(Cc1ccccc1)S(=O)(=O)c1cc(Cl)ccc1O [DNDI0003371156] | 3.61

====

experiment: in vitro
test parameters: human, microsomes, pH 7.4, Microsome Clint Human, intrinsic in vitro clearance, liver microsomes
The label satisfied is reserved for microsomal CLint at 0.5 μM strictly under 200 µL/min/mg; not satisfied covers values equal to or above it.

COc1ccc(C#N)cc1S(=O)(=O)N(Cc1ccccc1)Cc1ccccc1 | not satisfied
COc1ccc(F)cc1S(=O)(=O)N(Cc1ccccc1)Cc1ccccc1 | not satisfied
COc1ccc(OC)c(S(=O)(=O)N(Cc2ccccc2)Cc2ccccc2)c1 | not satisfied
COc1ccc(Cl)cc1S(=O)(=O)N(Cc1ccccc1)Cc1ccccc1 | not satisfied
COc1ccc(C(N)=O)cc1S(=O)(=O)N(Cc1ccccc1)Cc1ccccc1 | satisfied
COc1ccc(S(=O)(=O)N(Cc2ccccc2)Cc2ccccc2)cc1 | satisfied
COc1ccc(C(=O)NC2COC2)cc1S(=O)(=O)N(Cc1ccc(F)cc1)Cc1ccc(F)cc1 | satisfied
COc1ccc(C(=O)N2CCOCC2)cc1S(=O)(=O)N(Cc1ccccc1)Cc1ccccc1 | not satisfied
COc1ccc(C(=O)O)cc1S(=O)(=O)N(Cc1ccccc1)Cc1ccccc1 | satisfied
COc1ncccc1S(=O)(=O)N(Cc1ccccc1)Cc1ccccc1 | not satisfied
COc1ccc(S(C)(=O)=O)cc1S(=O)(=O)N(Cc1ccc(F)cc1)Cc1ccc(F)cc1 | not satisfied

====

experiment: in vitro
test parameters: mouse, microsomes, pH 7.4, MLM CLint (uL/min/mg), mouse liver microsomes
# binarize microsomal CLint at 0.5 μM: threshold 400 µL/min/mg inclusive, high side fulfilled, low side not fulfilled

COc1ccc(C#N)cc1S(=O)(=O)N(Cc1ccc(F)cc1)C1CCOCC1 | not fulfilled
COc1ccc(CN2CCC(F)(F)CC2)cc1S(=O)(=O)N(Cc1ccc(F)cc1)Cc1ccc(F)cc1 | fulfilled
COc1ccc(Cl)cc1S(=O)(=O)N(Cc1ccccc1)CC(N)c1ccc(F)cc1 (stereo not shown) | not fulfilled
COc1ccc(C(=O)N2CCOCC2)cc1S(=O)(=O)N(Cc1ccc(F)cc1)Cc1ccc(C(F)(F)F)nc1 | not fulfilled
O=S(=O)(c1ccccn1)N(Cc1ccccc1)Cc1ccccc1 | fulfilled
COc1ccc(CN(Cc2ccc(F)cc2)S(=O)(=O)c2cc(F)ccc2OCC[N+](C)(C)CC(=O)O)cc1 | not fulfilled
CNCCOc1ccc(F)cc1S(=O)(=O)N(Cc1ccc(F)cc1)Cc1ccc(F)cc1 | not fulfilled
O=S(=O)(c1cc(N2CCOCC2)ccc1OC(F)F)N(Cc1ccc(F)cc1)Cc1ccc(F)cc1 | fulfilled
COc1ccc(C(=O)N2CCOCC2)cc1S(=O)(=O)N(Cc1ccc(F)cc1)Cc1ccccc1Cl | fulfilled
O=S(=O)(NCc1ccccc1)c1cc2c(cc1Cl)NCN(Cc1ccccc1)S2(=O)=O | not fulfilled
COc1ccc(S(C)(=O)=O)cc1S(=O)(=O)N(Cc1ccccc1)CC(C)(C)C | fulfilled
COCCNC(=O)c1ccc(OC)c(S(=O)(=O)N(Cc2ccc(F)cc2)Cc2ccc(F)cc2)c1 | fulfilled
COc1ccc(CN(Cc2ccc(F)cc2)S(=O)(=O)c2cc(OC)ccc2OC)cc1 | not fulfilled
COc1ccc(C(=O)N(C)CCO)cc1S(=O)(=O)N(Cc1ccc(F)cc1)Cc1ccc(F)cc1 | fulfilled
O=C(c1ccc(OCC2CCCO2)c(S(=O)(=O)NCc2ccccc2)c1)N1CCOCC1 (stereo not shown) | not fulfilled

====

experiment: in vitro
test parameters: human
assay metric: CC50 at 3 days

COc1ccc(C)cc1S(=O)(=O)N(CC(=O)O)Cc1ccccc1 [DNDI0003363399] | > 55.4 µM
COCCOCN(Cc1ccccc1)S(=O)(=O)c1cc(OC)ccc1OC [DNDI0003425514] | > 64 µM
COc1ccc(C#N)cc1S(=O)(=O)N(Cc1ccc(F)cc1)Cc1ccccn1 [DNDI0003370083] | > 64 µM
O=S1(=O)c2ccccc2[C@H](O)[C@@H](Cc2ccccc2)N1Cc1ccccc1 [DNDI0003578378] | > 64 µM

====

Tested on: Leishmania infantum MHOM/MA(BE)/67/ITMAP263 intracellular amastigotes
experiment: microbe, parasite or virus in culture
test parameters: Macrophage, in Mus musculus, read-out: L. infantum MHOM/MA(BE)/67/ITMAP263 intracellular amastigotes IC50, intracellular amastigotes
pIC50: −log10 of the molar value.
# binarize pIC50: threshold 5 inclusive, high side rule met, low side rule not met

COc1ncc(Br)cc1S(=O)(=O)N(Cc1ccc(F)cc1)Cc1ccc(F)cc1 | rule not met
Nc1ncccc1S(=O)(=O)N(Cc1ccc(F)cc1)Cc1ccc(F)cc1 | rule not met
COCCN(Cc1ccccc1)S(=O)(=O)c1c(OC)ccc(Cl)c1[S+](C)[O-] (stereo not drawn) | rule not met
COc1ccc(C#N)cc1S(=O)(=O)N(Cc1ccc(F)cc1)Cc1ccccn1 | rule met
COc1ccc(OC)c(S(=O)(=O)N2CCC(c3ccccc3)CC2)c1 | rule not met
COc1ccc(C(=O)N2CCOCC2)cc1S(=O)(=O)N(Cc1ccccc1)Cc1ccccc1 | rule met
COC(=O)C(Cc1ccccc1)NS(=O)(=O)c1ccccc1Br (stereo not drawn) | rule not met

====

In this section, each of the compounds is paired with its reported Papp.
experiment: in vitro
test parameters: PAMPA
assay metric: Papp (×10⁻⁶ cm/s)

COc1ccc(OC)c(S(=O)(=O)N(Cc2ccc(F)cc2)Cc2cnc(OC)nc2OC)c1 | 15.2
COc1ccc(C(=O)N2CCOCC2)cc1S(=O)(=O)N(Cc1ccc(C(F)(F)F)nc1)C(C)c1ccc(F)cc1 (stereo not shown) | 18.1
COc1ccc(C(=O)NCCO)cc1S(=O)(=O)N(Cc1ccc(F)cc1)Cc1ccc(F)cc1 | 5.78
COc1ccc(C(=O)N2CCOCC2)cc1S(=O)(=O)N(Cc1ccc(C(F)(F)F)nc1)CC(C)(C)C | 15.7

====

In this section, each of the compounds is paired with its reported microsomal CLint at 0.5 μM.
experiment: in vitro
test parameters: human, microsomes, pH 7.4, HLM CLint (uL/min/mg), human liver microsomes
assay metric: microsomal CLint at 0.5 μM (µL/min/mg)

COc1ccc(-c2nc(C)no2)cc1S(=O)(=O)N(Cc1ccc(F)cc1)Cc1ccc(F)cc1 | 177
COCCNC(=O)c1ccc(OC)c(S(=O)(=O)N(Cc2ccc(F)cc2)Cc2ccc(F)cc2)c1 | 407
CCCCOc1ccc(C(=O)N2CCOCC2)cc1S(=O)(=O)NCc1ccccc1 | 160
COc1ccc(CN(Cc2ccc(F)cc2)S(=O)(=O)c2cc(OC)ccc2OC)cc1 | 80
CS(=O)(=O)c1ccccc1S(=O)(=O)N(Cc1ccccc1)Cc1ccccc1 | 248

====

In this section, each of the molecules is paired with its reported solubility kinetic.
experiment: physchem
test parameters: aqueous medium, pH 7.4, pH 7.4
assay metric: solubility kinetic (µg/mL)

COc1ccc(C(=O)N2CCOCC2)cc1S(=O)(=O)N(Cc1ccc(F)cc1)Cc1ccc(C(F)(F)F)nc1 [Compound 46] | 3.2
COc1ccc(C(=O)N2CCOCC2)cc1S(=O)(=O)N(Cc1ccccc1)Cc1cnc(C(F)(F)F)nc1 [Compound 47] | 6.2

====

In this section, each of the compounds is paired with its reported Papp.
experiment: in vitro
test parameters: PAMPA
assay metric: Papp (×10⁻⁶ cm/s)

CNC(=O)c1ccc(OC)c(S(=O)(=O)N(CCOC)Cc2ccccc2)c1 [DNDI0003392128] | 7.61
COc1ccc(C#N)cc1S(=O)(=O)N(Cc1ccccc1)Cc1cnc(C(F)(F)F)nc1 [DNDI0003425527] | 29.4
COc1ccc(CNC2COC2)cc1S(=O)(=O)N(Cc1ccc(F)cc1)Cc1ccc(F)cc1 [DNDI0003389115] | 3.42
CN(C)c1ncccc1S(=O)(=O)N(Cc1ccc(F)cc1)Cc1ccc(F)cc1 [DNDI0003389117] | 1.18
COCCNC(=O)c1ccc(OC)c(S(=O)(=O)N(Cc2ccc(F)cc2)Cc2ccc(F)cc2)c1 [DNDI0003371177] | 8.63
O=S(=O)(c1cc(N2CCOCC2)ccc1OC(F)F)N(Cc1ccc(F)cc1)Cc1ccc(F)cc1 [DNDI0003389647] | 0.12
COCCN(Cc1ccc(F)cc1)S(=O)(=O)c1cc(C(=O)N2CCOCC2)ccc1OC [DNDI0003392125] | 15.4
COc1ccc(OC)c(S(=O)(=O)N(Cc2ccc(F)cc2)C2CCOCC2)c1 [DNDI0003388086] | 31.9
COc1ccccc1S(=O)(=O)N(Cc1ccccc1)CC(O)c1ccc(F)cc1 (stereo not drawn) [DNDI0003389317] | 11.8
